Sourced from patent US12091393B2

// activity at 5 µM lookup, one value per entry
Test system: NF-κB
Assay: Measurement of NF-κB activation using THP1-Blue NF-κB cells (SEAP)
Assay type: cell-based
Conditions: compound 5 μM + LPS, 20 h; two point normalized, compound 1 as 200%, LPS (10 ng/mL) as 100%; read-out: NF-κB SEAP Compound + LPS % Activation
measured-property: activity at 5 µM

INSERT INTO measurements (molecule, observed) VALUES
  ('CCCC1CCN(S(=O)(=O)c2ccc(C(=O)Nc3nc(-c4cc(C)ccc4C)cs3)cc2)CC1 [Compound 58h]', '248%'),
  ('Cc1ccc(C)c(-c2csc(NC(=O)c3ccc(S(=O)(=O)NC4CCCCC4)cc3)n2)c1 [Compound 58e]', '94.5%'),
  ('Cc1ccc(Br)c(-c2csc(NC(=O)c3ccc(S(=O)(=O)N4CCCCC4)cc3)n2)c1 [Compound 12d]', '223%'),
  ('CCOC1CCN(S(=O)(=O)c2ccc(C(=O)Nc3nc(-c4cc(C)ccc4C)cs3)cc2)CC1 [Compound 58g]', '178%'),
  ('C#CC1CCN(S(=O)(=O)c2ccc(C(=O)Nc3nc(-c4cc(N=[N+]=[N-])ccc4C)cs3)cc2)CC1', '398%'),
  ('Cc1ccc(C)c(-c2nc(NC(=O)c3ccc(S(=O)(=O)N4CCCCC4)cc3)sc2C#CCCCO)c1 [Compound 18u]', '134%'),
  ('CCCN(CCC)S(=O)(=O)c1ccc(C(=O)Nc2nc(-c3cc(C)ccc3C)cs2)cc1 [Compound 58b]', '260%'),
  ('CCN(c1ccccc1)S(=O)(=O)c1ccc(C(=O)Nc2nc(-c3cc(C)ccc3C)cs2)cc1 [Compound 58d]', '89.8%'),
  ('Cc1ccccc1-c1csc(NC(=O)c2ccc(S(=O)(=O)N3CCCCC3)cc2)n1 [Compound 12b]', '105%'),
  ('Cc1cccc(-c2csc(NC(=O)c3ccc(S(=O)(=O)N4CCCCC4)cc3)n2)c1 [Compound 12c]', '98.6%'),
  ('Cc1ccc(C)c(-c2csc(NCc3ccc(S(=O)(=O)N4CCCCC4)cc3)n2)c1 [Compound 34a]', '102%'),
  ('O=C(Nc1nc(-c2cccc3ccccc23)cs1)c1ccc(S(=O)(=O)N2CCCCC2)cc1 [Compound 12q]', '200%'),
  ('CCc1sc(NC(=O)c2ccc(S(=O)(=O)N3CCCCC3)cc2)nc1-c1cc(C)ccc1C [Compound 18r]', '179%'),
  ('Cc1ccc(C)c(-c2csc(NC(=O)c3ccc(S(=O)(=O)N4CCC5(CC4)N=N5)cc3)n2)c1 [Compound 72e]', '168%'),
  ('Cc1ccc(C)c(-c2nnc(NC(=O)c3ccc(S(=O)(=O)N4CCCCC4)cc3)s2)c1 [Compound 18f]', '148%'),
  ('C#CCN(CC)S(=O)(=O)c1ccc(C(=O)Nc2nc(-c3cc(C)ccc3C)cs2)cc1 [Compound 72b]', '109%'),
  ('CC(C)(C)c1csc(NC(=O)c2ccc(S(=O)(=O)N3CCCCC3)cc2)n1 [Compound 12k]', '94.1%'),
  ('CCOc1sc(NC(=O)c2ccc(S(=O)(=O)N3CCCCC3)cc2)nc1-c1cc(C)ccc1C [Compound 18l]', '111%'),
  ('CC(=O)N1CCN(S(=O)(=O)c2ccc(C(=O)Nc3nc(-c4cc(C)ccc4C)cs3)cc2)CC1 [Compound 58j]', '101%');
